Ref: patent US20240174690A1

# Measurement description: Solubility measurement (DMSO solution method), McIlvaine buffer pH 4.5 or 6.8
# Assay type: physicochemical
# Condition info: aqueous buffer, kinetic from dmso stock; McIlvaine buffer pH 6.8; DMSO stock diluted to 250 μM; 24 h shaking at ambient temperature; read-out: solubility pH 6.8
// values below are reported solubility at 24 h

These solved cases illustrate the format of a correct answer.
[
  {
    "Sample smiles": "C[C@H](Oc1cc(N2CCN[C@@H](C)C2)nc(-c2noc3c2CCC[C@@]32CCCc3sc(N)c(C#N)c32)n1)[C@@H]1CCCN1C",
    "solubility at 24 h": "> 137 µg/mL"
  },
  {
    "Sample smiles": "C[C@H](Oc1cc(N2C[C@@H](N(C)C)[C@@H](O)C2)nc(-c2noc3c2CCC[C@@]32CCCc3sc(N)c(C#N)c32)n1)[C@@H]1CCCN1C",
    "solubility at 24 h": "> 135 µg/mL"
  },
  {
    "Sample smiles": "C[C@H]1CN(C)CCCN1c1cc(N2CCN(C)CC2)nc(-c2onc3c2CCC[C@@]32CCCc3sc(N)c(C#N)c32)n1",
    "solubility at 24 h": "> 133 µg/mL"
  },
  {
    "Sample smiles": "C[C@H](Oc1cc(N2CCN(C)C3(CC3)C2)nc(-c2noc3c2CCC[C@@]32CCCc3sc(N)c(C#N)c32)n1)[C@@H]1CCCN1C",
    "solubility at 24 h": "> 148 µg/mL"
  },
  {
    "Sample smiles": "C[C@H](Oc1cc(N2C[C@H](C)N[C@@H](C)C2)nc(-c2noc3c2CCC[C@@]32CCCc3sc(N)c(C#N)c32)n1)[C@@H]1CCCN1C",
    "solubility at 24 h": "> 146 µg/mL"
  }
]

Look up solubility at 24 h: C[C@H](Oc1cc(N2C[C@@H]3[C@@H](N)[C@@H]3C2)nc(-c2noc3c2CCC[C@@]32CCCc3sc(N)c(C#N)c32)n1)[C@@H]1CCCN1C
> 142 µg/mL

Fill blank: measured solubility at 24 h of the molecule [2H]C([2H])([2H])N1C[C@H](F)C[C@H]1[C@H](C)Oc1cc(N2CCN(C)C3(CC3)C2)nc(-c2noc3c2CCC[C@@]32CCCc3sc(N)c(C#N)c32)n1 is ____.
< 1 µg/mL
